target: BRAF (Homo sapiens); construct: purchased Invitrogen; test: Z'-LYTE kinase inhibition assay against BRAF; type: biochemical; conditions: Z'-LYTE method
Sequence (P15056 whole entry): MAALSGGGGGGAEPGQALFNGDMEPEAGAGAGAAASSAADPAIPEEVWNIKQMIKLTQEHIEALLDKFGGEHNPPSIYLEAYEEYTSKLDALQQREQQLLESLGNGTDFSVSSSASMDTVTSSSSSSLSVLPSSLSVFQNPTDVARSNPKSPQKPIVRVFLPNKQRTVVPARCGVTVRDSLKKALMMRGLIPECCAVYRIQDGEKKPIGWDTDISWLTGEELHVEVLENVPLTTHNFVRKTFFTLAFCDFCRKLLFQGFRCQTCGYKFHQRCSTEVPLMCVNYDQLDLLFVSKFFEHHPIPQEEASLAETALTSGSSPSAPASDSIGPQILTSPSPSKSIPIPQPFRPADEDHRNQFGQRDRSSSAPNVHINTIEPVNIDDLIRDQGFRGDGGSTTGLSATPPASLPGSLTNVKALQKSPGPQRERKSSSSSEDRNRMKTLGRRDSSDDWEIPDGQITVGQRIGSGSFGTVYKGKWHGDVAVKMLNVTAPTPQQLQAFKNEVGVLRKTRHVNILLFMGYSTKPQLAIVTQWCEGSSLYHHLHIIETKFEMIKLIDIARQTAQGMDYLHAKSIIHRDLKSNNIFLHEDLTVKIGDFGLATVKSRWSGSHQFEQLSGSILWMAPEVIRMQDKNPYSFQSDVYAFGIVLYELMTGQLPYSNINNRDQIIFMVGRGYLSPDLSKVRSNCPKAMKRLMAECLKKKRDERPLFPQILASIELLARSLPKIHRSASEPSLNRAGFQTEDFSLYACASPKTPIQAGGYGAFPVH
Here, each record is paired with measured inhibition at 1 µM data.

Example entries and their recorded answers appear below.
O=C(Nc1ccc(C(=O)c2ccc3ncc(N4CCNCC4)nc3c2)cc1)Nc1cccc(C(F)(F)F)c1 [Compound C17]; < 70%
O=C(Nc1ccc(Cl)cc1)Nc1ccc(C(=O)c2ccc3ncc(N4CCNCC4)nc3c2)cc1 [Compound C09]; 70 to 89%
O=C(Nc1ccc(C(=O)c2ccc3ncc(N4CCNCC4)nc3c2)cc1)Nc1cccc(F)c1 [Compound C19]; < 70%

Now examine the next entry.
Please fill in: inhibition at 1 µM reported for O=C(Nc1ccc(C(=O)c2ccc3ncc(C4CCNCC4)nc3c2)cc1)Nc1ccc(F)c(C(F)(F)F)c1 [Compound C28] = < 70%

* * *

Target: BRAF V600E (Homo sapiens, UniProt P15056, V600E)
Construct: purchased Invitrogen
Sequence (P15056 whole entry V600E): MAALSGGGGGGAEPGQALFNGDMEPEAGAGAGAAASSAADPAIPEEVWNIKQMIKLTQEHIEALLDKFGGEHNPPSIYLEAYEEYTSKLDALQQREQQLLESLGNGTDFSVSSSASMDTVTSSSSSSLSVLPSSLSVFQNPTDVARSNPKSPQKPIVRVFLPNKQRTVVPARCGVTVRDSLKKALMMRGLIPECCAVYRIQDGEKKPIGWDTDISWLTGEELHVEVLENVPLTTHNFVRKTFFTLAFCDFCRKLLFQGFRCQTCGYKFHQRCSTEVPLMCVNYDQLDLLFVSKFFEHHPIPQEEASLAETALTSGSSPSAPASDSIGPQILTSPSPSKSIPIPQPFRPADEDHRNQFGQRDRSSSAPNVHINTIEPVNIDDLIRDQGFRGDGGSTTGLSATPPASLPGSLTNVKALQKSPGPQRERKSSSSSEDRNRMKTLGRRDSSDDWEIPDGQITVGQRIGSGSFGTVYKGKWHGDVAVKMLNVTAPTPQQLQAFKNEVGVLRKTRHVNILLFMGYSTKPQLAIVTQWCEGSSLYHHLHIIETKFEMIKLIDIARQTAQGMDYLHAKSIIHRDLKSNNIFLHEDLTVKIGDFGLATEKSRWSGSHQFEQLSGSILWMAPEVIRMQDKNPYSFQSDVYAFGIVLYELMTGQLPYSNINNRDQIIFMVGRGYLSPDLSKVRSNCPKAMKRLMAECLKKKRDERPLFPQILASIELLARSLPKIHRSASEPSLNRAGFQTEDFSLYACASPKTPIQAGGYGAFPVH
Assay: Z'-LYTE kinase inhibition assay against BRAF V600E
Assay type: biochemical
Details: % inhibition at 1 μM, Z'-LYTE method
Procedure: Inhibitory activities Inhibitory activities of compounds against BRAF, and BRAF V600E were measured by Invitrogen using Z′-LYTE® Method as briefly described in the following. 4× Test compounds are dissolved in 1% DMSO. […] Fluorescence was read by plate reader. IC50 was calculated by plotting the concentration of compound vs the percentage of inhibition in treated wells using GraphPad Prism 5. […]
MEASUREMENT_KIND: inhibition at 1 µM

Example entries and their recorded answers appear below.
N#Cc1ccc(NC(=O)Nc2ccc(C(=O)c3ccc4ncc(N5CCNCC5)nc4c3)cc2)cc1C(F)(F)F [Compound C16]; > 89%
O=C(Nc1ccc(C(=O)c2ccc3ncc(N4CCOCC4)nc3c2)cc1)Nc1ccc(F)c(C(F)(F)F)c1 [Compound C06]; < 70%
O=C(Nc1cccc(F)c1)Nc1ccc(C(=O)c2ccc3ncc(N4CCNCC4)nc3c2)c(F)c1 [Compound C20]; > 89%
N#Cc1ccc(NC(=O)Nc2ccc(C(=O)c3ccc4ncc(N5CCOCC5)nc4c3)cc2)cc1C(F)(F)F [Compound C15]; < 70%
O=C(Nc1ccc(C(=O)c2ccc3ncc(N4CCNCC4)nc3c2)cc1)Nc1ccc(C(F)(F)F)cc1 [Compound C13]; > 89%

With BRAF V600E (Homo sapiens, UniProt P15056, V600E) as the test system, O=C(Nc1cccc(C(F)(F)F)c1)Nc1ccc(C(=O)c2ccc3ncc(N4CCNCC4)nc3c2)c(F)c1 [Compound C21] showed inhibition at 1 µM of > 89%

With BRAF V600E (Homo sapiens, UniProt P15056, V600E) as the test system, N#Cc1ccc(CC(=O)Nc2ccc(C(=O)c3ccc4ncc(N5CCNCC5)nc4c3)c(F)c2)cc1C(F)(F)F [Compound C26] showed inhibition at 1 µM of > 89%

* * *

target: KDR (VEGFR2) (Homo sapiens); construct: purchased Invitrogen; assay: Z'-LYTE kinase inhibition assay against KDR; format: biochemical; settings: % inhibition at 1 μM, Z'-LYTE method
Sequence (P35968 20-1356): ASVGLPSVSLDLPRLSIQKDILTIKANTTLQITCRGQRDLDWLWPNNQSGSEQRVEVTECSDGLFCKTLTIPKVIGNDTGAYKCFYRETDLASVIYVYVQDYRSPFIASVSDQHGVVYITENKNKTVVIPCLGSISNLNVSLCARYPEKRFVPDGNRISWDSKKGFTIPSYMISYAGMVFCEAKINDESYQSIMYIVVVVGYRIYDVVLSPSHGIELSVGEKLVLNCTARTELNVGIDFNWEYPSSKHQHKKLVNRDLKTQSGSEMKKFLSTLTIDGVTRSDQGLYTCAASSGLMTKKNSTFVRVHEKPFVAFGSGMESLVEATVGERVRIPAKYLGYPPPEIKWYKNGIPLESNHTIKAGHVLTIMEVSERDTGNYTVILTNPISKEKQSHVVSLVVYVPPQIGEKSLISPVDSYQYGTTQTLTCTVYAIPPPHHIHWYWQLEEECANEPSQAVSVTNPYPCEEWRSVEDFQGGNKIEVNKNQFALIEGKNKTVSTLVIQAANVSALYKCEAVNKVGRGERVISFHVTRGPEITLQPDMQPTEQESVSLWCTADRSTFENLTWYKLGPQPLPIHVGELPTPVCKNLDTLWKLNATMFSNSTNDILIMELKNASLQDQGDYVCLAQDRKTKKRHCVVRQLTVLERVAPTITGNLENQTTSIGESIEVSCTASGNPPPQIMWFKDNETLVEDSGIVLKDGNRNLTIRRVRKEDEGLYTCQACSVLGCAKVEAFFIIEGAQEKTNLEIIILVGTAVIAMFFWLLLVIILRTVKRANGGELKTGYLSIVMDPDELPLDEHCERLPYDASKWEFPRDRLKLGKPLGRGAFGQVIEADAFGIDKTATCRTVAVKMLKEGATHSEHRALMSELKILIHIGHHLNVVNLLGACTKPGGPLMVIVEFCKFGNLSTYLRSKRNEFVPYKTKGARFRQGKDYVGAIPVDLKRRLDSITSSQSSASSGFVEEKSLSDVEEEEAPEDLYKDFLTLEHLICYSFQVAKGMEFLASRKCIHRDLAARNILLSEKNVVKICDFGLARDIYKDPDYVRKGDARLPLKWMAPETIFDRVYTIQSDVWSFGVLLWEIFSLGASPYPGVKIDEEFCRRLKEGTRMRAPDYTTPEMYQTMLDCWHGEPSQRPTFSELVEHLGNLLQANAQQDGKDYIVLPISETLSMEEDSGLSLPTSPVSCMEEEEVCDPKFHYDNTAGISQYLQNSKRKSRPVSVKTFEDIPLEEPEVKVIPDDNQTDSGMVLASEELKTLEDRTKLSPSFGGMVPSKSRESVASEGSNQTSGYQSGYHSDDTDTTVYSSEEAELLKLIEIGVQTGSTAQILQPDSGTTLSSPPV
MEASUREMENT_KIND: inhibition at 1 µM

Please fill in: inhibition at 1 µM reported for N#Cc1ccc(NC(=O)Nc2ccc(C(=O)c3ccc4ncc(N5CCNCC5)nc4c3)cc2)cc1C(F)(F)F [Compound C16] = > 89%

Please fill in: inhibition at 1 µM reported for O=C(Nc1ccc(C(=O)c2ccc3ncc(N4CCNCC4)nc3c2)cc1)Nc1ccc(F)c(C(F)(F)F)c1 [Compound C14] = > 89%

Please fill in: inhibition at 1 µM reported for O=C(Nc1ccc(C(=O)c2ccc3ncc(C4CCNCC4)nc3c2)cc1)Nc1cccc(C(F)(F)F)c1 [Compound C27] = < 70%

Please fill in: inhibition at 1 µM reported for O=C(Nc1ccc(C(=O)c2ccc3ncc(N4CCOCC4)nc3c2)c(F)c1)Nc1ccc(Cl)c(C(F)(F)F)c1 [Compound C25] = < 70%
